Reported kon values for a set of binders
System Tested: T1, human alpha CGRP (SEQ ID NO: 80) (human, not fully specified)
T1 construct: also called human αCGRP; hαCGRP
T1 peptide: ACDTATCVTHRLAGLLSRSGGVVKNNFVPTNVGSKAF
Measurement Notes: SPR, 37 C, mutein captured, CGRP analyte

Binder	kon
lipocalin mutein SEQ ID NO: 14 (designed binder, biotinylated by NHS chemistry for capture in SPR) QDSTSDLIPAPPLSKVPLQQNFQDNQFHGKWYVVGRAGNDALREDKDPEKMEATIYELKEDKSYNVTDVGFVQKKCMYVIHTFVPGSQPGEFTLGNIKSYPGVTSALVRVVSTNYNQHAMVFFKLVKQNRELFEITLYGRTKELTSELKENFIRFSKSLGLPENHIVFPVPIDQCIDGSAWSHPQFEK	2.56e+06 M⁻¹ s⁻¹
lipocalin mutein SEQ ID NO: 25 (designed binder, biotinylated by NHS chemistry for capture in SPR) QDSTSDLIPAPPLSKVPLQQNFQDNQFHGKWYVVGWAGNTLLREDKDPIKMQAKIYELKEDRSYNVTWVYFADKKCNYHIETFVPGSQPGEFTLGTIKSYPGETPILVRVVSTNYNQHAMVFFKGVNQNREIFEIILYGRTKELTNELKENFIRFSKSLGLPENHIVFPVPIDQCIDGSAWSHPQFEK	2.68e+06 M⁻¹ s⁻¹
lipocalin mutein SEQ ID NO: 8 (designed binder, biotinylated by NHS chemistry for capture in SPR) QDSTSDLIPAPPLSKVPLQQNFQDNQFHGKWYVVGWAGNTLRREDKNPTKMQATIYELKEDKSYNVTWVYFSEKKCNYHIETSVPGSQPGEFTLGTIKSYPGETSILVRVVSTNYNQHAMVFFKGVSQNREIFEITLYGRTKELTSELKENFIRFSKSLGLPENHIVFPVPIDQCIDGSAWSHPQFEK	2.07e+06 M⁻¹ s⁻¹
lipocalin mutein SEQ ID NO: 16 (designed binder, biotinylated by NHS chemistry for capture in SPR) QDSTSDLIPAPPLSKVPLQQNFQDNQFHGKWYVVGRAGNDELREDKDPEKMEATIYELKEDKSYNVTDVGFVQKKCMYVIHTFVPGSQPGEFTLGNIKSYPGVTSGLVRVVSTNYNQHAMVFFKVVRQNRELFEITLYGRTKELTSELKENFIRFSKSLGLPENHIVFPVPIDQCIDGSAWSHPQFEK	5.02e+06 M⁻¹ s⁻¹
lipocalin mutein SEQ ID NO: 11 (designed binder, biotinylated by NHS chemistry for capture in SPR) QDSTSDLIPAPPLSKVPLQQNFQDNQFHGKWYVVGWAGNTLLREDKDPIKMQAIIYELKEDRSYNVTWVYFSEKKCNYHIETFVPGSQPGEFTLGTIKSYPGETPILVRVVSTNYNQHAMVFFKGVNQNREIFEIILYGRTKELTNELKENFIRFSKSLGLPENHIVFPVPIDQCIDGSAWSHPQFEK	3.08e+06 M⁻¹ s⁻¹
lipocalin mutein SEQ ID NO: 17 (designed binder, biotinylated by NHS chemistry for capture in SPR) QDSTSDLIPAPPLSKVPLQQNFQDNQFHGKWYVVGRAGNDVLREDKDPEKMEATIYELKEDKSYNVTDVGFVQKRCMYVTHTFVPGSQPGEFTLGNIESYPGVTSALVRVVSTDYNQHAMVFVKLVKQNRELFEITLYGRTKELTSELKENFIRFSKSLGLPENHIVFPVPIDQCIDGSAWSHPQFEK	3.34e+06 M⁻¹ s⁻¹

From: patent US20190338002A1
